Just for reference, patent US12396949B2 is where these values come from.

test: Liposome size by intensity, dynamic light scattering (silyl-DOTAP liposomes); format: physicochemical; settings: three liposome solutions, 1 mg/mL in Milli Q water, thin film hydration/bath sonication, DLS; all trials
Labelling: size (size by intensity, average ± standard deviation) reported below 200 nm becomes label 1; at or above becomes label 0.

# compound, qualitative label
data = [
    ("CCCC[Si](C)(C)CCCCCC(=O)OCC(C[N+](C)(C)C)OC(=O)CCCCC[Si](C)(C)CCCC (centres unmarked) [6Si4]", "label 0"),
]

Exercise: Hi there! Is size (size by intensity, average ± standard deviation) for CCCCCCCC/C=C\CCCCCCCC(=O)OCC(C[N+](C)(C)C)OC(=O)CCCCCCC/C=C\CCCCCCCC.[Cl-] (centres unmarked) [DOTAP, reference compound] below 200 nm, do you know?
Key: label 0

Exercise: Hi there! Is size (size by intensity, average ± standard deviation) for CCCCCC[Si](C)(C)CCCCCCCC(=O)OCC(C[N+](C)(C)C)OC(=O)CCCCCCC[Si](C)(C)CCCCCC (centres unmarked) [8Si6] below 200 nm, do you know?
Key: label 1

Exercise: Hi there! Is size (size by intensity, average ± standard deviation) for C[N+](C)(C)CC(COC(=O)CCCC[Si](C)(C)CCCc1ccccc1)OC(=O)CCCC[Si](C)(C)CCCc1ccccc1 (centres unmarked) [5Si3Ph] below 200 nm, do you know?
Key: label 0

Exercise: Hi there! Is size (size by intensity, average ± standard deviation) for C[N+](C)(C)CC(COC(=O)CCCC[Si](C)(C)C1CCCCC1)OC(=O)CCCC[Si](C)(C)C1CCCCC1 (centres unmarked) [5SiCy] below 200 nm, do you know?
Key: label 1
